Data provenance: paper PMC12715762

Procedure text: plasma protein binding, equilibrium dialysis (rat)
Assay type: in vitro ADME
Measurement parameters: pH 7.4, rat (r), read-out: fu,plasma

# Given smiles, fraction unbound at 6 h, 5 µM
records = [
    ("Cn1cc2c(-c3cc(F)c(CN4Cc5ncccc5C4=O)c(F)c3)ccc(C(C)(C)O)c2n1", 0.023),
]

---

Procedure text: brain to plasma ratio (rat)
Format: in vivo
Measurement parameters: male, Sprague Dawley, brain and plasma, intravenous, 0.2 mg/kg, unbound brain:unbound plasma

# Given smiles, Kp uu at 15 min
measured = [
    ("Cn1cc2c(-c3cc(F)c(CN4Cc5ncccc5C4=O)c(F)c3)ccc(C(C)(C)O)c2n1", 1.27),
]

---

Procedure text: IV/PO pharmacokinetics (rat)
Type: in vivo
Measurement parameters: plasma; Rat (SD), 10 mg/kg po
Result type: Cmax (µM)

# Given smiles, Reading unit, Numeric result
records = [
    ("Cn1cc2c(-c3cc(F)c(CN4Cc5ncccc5C4=O)c(F)c3)ccc(C(C)(C)O)c2n1", "µM", 15.9),
]

---

Measured target: hERG (Homo sapiens)
Construct: Charles River
Sequence (Q12809 whole entry): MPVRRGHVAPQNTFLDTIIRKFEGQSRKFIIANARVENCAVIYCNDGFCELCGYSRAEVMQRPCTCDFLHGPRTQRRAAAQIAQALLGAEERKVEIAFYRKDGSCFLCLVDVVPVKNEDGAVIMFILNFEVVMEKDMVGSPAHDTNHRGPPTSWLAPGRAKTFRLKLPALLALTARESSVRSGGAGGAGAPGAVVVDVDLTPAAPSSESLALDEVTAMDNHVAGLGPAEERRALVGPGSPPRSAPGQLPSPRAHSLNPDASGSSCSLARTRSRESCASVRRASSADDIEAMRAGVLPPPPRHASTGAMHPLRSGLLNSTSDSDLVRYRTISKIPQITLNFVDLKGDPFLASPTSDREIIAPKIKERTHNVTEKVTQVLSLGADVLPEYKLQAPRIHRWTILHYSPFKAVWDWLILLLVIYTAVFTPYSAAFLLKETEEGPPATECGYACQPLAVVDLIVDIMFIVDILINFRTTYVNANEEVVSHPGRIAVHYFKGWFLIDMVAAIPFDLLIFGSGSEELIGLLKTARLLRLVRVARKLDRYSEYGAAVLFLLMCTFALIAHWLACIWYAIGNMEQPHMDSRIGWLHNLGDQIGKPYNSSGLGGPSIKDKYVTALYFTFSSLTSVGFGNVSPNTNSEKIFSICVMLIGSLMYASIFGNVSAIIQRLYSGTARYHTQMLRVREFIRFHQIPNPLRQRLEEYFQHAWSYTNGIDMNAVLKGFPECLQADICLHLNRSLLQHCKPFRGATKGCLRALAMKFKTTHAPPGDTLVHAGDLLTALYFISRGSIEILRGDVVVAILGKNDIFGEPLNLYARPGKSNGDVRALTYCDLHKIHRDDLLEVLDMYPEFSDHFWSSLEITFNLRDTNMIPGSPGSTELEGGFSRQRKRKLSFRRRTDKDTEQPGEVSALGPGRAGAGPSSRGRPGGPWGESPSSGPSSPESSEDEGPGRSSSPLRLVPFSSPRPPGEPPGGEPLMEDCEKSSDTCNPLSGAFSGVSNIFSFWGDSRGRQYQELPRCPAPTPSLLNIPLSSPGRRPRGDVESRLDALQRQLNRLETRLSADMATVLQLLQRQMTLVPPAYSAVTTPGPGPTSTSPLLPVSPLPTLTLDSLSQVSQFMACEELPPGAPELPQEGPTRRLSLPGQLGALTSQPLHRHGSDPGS
Procedure text: functional hERG manual patch clamp (MPC) assay
pIC50: −log10 of the molar value.
Result type: pIC50

# Molecule, Result
data = [
    ("Cn1cc2c(-c3cc(F)c(CN4Cc5ncccc5C4=O)c(F)c3)ccc(C(C)(C)O)c2n1 [compound 7]", "< 4.52"),
]

---

Procedure text: 14-day rat toxicology and toxicokinetic study
Type: in vivo
Measurement parameters: both sexes, rat, plasma, po, 30 mg/kg, Day 1, 30 mg/kg PO, PEG-400, rat

# Molecule, Reading unit, Cmax
records = [
    ("Cn1cc2c(-c3cc(F)c(CN4Cc5ncccc5C4=O)c(F)c3)ccc(C(C)(C)O)c2n1 [compound 7]", "µM", 20.9),
]

---

Procedure text: IV/PO pharmacokinetics (NHP)
Assay type: in vivo
Measurement parameters: cynomolgus monkey, plasma; NHP (cyno), 1 mg/kg iv; read-out: Elimination t1/2 (converted)
Result type: half-life (h)

# Compound, Result type, Numeric result
measured = [
    ("Cn1cc2c(-c3cc(F)c(CN4Cc5ncccc5C4=O)c(F)c3)ccc(C(C)(C)O)c2n1 [compound 7]", "half-life", 4.9),
]

---

Measured target: UniProt P11229
Sequence (P11229 whole entry): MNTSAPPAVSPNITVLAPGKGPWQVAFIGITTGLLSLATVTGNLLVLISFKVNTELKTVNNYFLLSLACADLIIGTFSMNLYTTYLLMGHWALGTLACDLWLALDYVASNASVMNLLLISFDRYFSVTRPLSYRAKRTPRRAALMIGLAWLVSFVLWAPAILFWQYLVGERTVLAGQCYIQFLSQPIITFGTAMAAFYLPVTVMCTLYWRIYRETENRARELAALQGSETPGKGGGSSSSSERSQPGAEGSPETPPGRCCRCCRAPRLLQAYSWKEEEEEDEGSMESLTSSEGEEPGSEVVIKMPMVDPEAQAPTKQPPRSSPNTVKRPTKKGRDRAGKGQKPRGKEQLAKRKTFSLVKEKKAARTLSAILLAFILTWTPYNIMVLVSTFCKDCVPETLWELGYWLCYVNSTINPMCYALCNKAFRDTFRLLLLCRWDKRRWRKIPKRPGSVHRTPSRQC
Procedure text: M1 agonist calcium mobilization assay (human)
Assay type: cell-based
Measurement parameters: human M1, n = 9; read-out: hM1 Agonist EC50
pEC50: −log10 of the molar value.
Result type: pEC50

# Given smiles, Numeric result
measured = [
    ("Cn1cc2c(-c3cc(F)c(CN4Cc5ncccc5C4=O)c(F)c3)ccc(C(C)(C)O)c2n1", 5.44),
]

---

Procedure text: rat oral dose escalation PK study
Type: in vivo
Measurement parameters: Sprague-Dawley, rat, plasma, po, 10 mg/kg, rat PO 10 mg/kg, 10% aqueous Tween 80 suspension

# Given smiles, Cmax
data = [
    ("Cn1cc2c(-c3cc(F)c(CN4Cc5ncccc5C4=O)c(F)c3)ccc(C(C)(C)O)c2n1", "2340 ng/mL"),
]

---

Procedure text: IV/PO pharmacokinetics (dog)
Type: in vivo
Measurement parameters: plasma; Dog (beagle), 3 mg/kg po

# Given smiles, Reading unit, Tmax
rows = [
    ("Cn1cc2c(-c3cc(F)c(CN4Cc5ncccc5C4=O)c(F)c3)ccc(C(C)(C)O)c2n1", "h", 1.33),
]
